Exercise: for every item that follows, state its recorded PBM binding z-score.
Tested on: PPARg:RXRa 90nM:30nM, anti-RXR (NR concentration 90 nM, RXRa partner concentration 30 nM)
Test: PBM binding z-score (relative to random genomic background probes); higher = stronger binding; sequences stand for … in GC…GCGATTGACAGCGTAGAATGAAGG
// return a plain number; no unit text

Could you please provide reported PBM binding z-score for `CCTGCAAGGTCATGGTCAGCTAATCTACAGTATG` ? Thanks!
3.51

Supply measured PBM binding z-score of `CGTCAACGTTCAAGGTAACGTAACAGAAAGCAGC` in your reply.
-0.193

Using known records, supply PBM binding z-score for `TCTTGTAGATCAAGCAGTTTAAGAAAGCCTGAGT`
2.03

Provide only the value of recorded PBM binding z-score for `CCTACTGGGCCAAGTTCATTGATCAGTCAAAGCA`
1.6

Quickly give me recorded PBM binding z-score for `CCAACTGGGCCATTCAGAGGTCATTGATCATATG`
2.16

Give the reported value of PBM binding z-score for this record: `GCATATAGGTAATACAAGGTGAAAGTCCGATTGT`
0.931

For `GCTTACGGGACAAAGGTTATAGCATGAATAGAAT` , write its PBM binding z-score.
8.27

Report PBM binding z-score for `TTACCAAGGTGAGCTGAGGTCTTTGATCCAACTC`
-0.0349

Consider the sequence `ACAGACAGGTGATGACGGTAACTCAGGCTATCAT` and give its recorded PBM binding z-score.
-0.0238

Identify the reported PBM binding z-score for the following entry. `ATCGAAAGGTCTAGGTGAGTATAGAGAAAGGGAA`
0.331

State its PBM binding z-score: `CAAACTAGGTCAAAGGTCAATGTCGAGCCAACCA`
14.2

Hello, please tell me recorded PBM binding z-score for this one: `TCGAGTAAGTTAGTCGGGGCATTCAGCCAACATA`
0.486
